target_system: T1, LRP1 CR3-5 (UniProt Q07954 852-973, limits assumed)
T1 construct: domain: CR3-5; also called LRP1 CR domains
T1 sequence (Q07954 852-973 limits assumed): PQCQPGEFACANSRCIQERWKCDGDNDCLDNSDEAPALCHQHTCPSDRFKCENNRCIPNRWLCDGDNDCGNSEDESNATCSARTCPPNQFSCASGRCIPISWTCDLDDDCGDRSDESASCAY
assay_explanation: solid-phase binding, OD at highest concentration against highest OD of all ligands
metric: % max (percent of maximum binding) (%)

Illustrative cases are given below, each with its answer.
binder	% max (percent of maximum binding) / %
MegaRAP1 d3 K217E (ligand, also called MegaRAP1 K217E) GLDRLRRVSHQGYTTEAEFEEPRVIDLWDLAQSANLTDKELEAFREELKYFKAKIEAHNHYQKQLEIAHEELRHAESVGDGERVSRSREKHALLEGRTKELGYTVKKHLQDLSGRISRARHNEL	2
MegaRAP1 d3 E270K (ligand, also called MegaRAP1 E270K) GLDRLRRVSHQGYTTEAKFEEPRVIDLWDLAQSANLTDKELEAFREELKYFKAKIEAHNHYQKQLEIAHEKLRHAESVGDGERVSRSREKHALLEGRTKELGYTVKKHLQDLSGRISRARHNEL	85

1. RAP d3 H249Y (ligand, also called RAP H249Y) GLDRLRRVSHQGYSTEAEFEEPRVIDLWDLAQSANLTDKELEAFREELKYFEAKIEKHNHYQKQLEIAHEKLRHAESVGDGERVSRSREKHALLEGRTKELGYTVKKHLQDLSGRISRARHNEL
2. RAP d3 K270E (ligand, also called RAP K270E) GLDRLRRVSHQGYSTEAEFEEPRVIDLWDLAQSANLTDKELEAFREELKHFEAKIEKHNHYQKQLEIAHEELRHAESVGDGERVSRSREKHALLEGRTKELGYTVKKHLQDLSGRISRARHNEL
Smaller % max (percent of maximum binding) value, 1 vs 2 ? Refer to your chosen item by its label in the answer. 2
(2: 4%, 1: 90%)
